Hey, just so you know, these numbers are from the supplement of paper PMC4862054.

- Test system: DU-4475
- method.notes: drug sensitivity score (DSS), CellTox Green (DSS (AUC-based score)); higher = stronger drug effect (viability inhibition or cytotoxicity); extreme values may be limits of the assay
- test.parameters: incubation time: 72 h
measurement.kind: drug sensitivity score
Enter the number alone.

Solved cases below.
{"compound": "S=P(N1CC1)(N1CC1)N1CC1 [Thio-TEPA]", "drug sensitivity score": 0}
{"compound": "COCC[n+]1c2c(n(Cc3cnccn3)c1C)C(=O)c1ccccc1C2=O [YM155]", "drug sensitivity score": 3.34}
{"compound": "Cc1cc(Nc2cc(CN3CCOCC3)c3nc(C)c(Cc4ccc(Cl)cc4F)n3n2)n[nH]1 [Gandotinib]", "drug sensitivity score": 0}
{"compound": "O=C(Nc1cccnc1)N1CCC(Cc2cccc(Oc3ccc(C(F)(F)F)cn3)c2)CC1 [PF-3845]", "drug sensitivity score": 0}

Consider the additional compound presented here.
Query :: Please look at COc1cc2/c(=N/c3ccc(Br)cc3F)nc[nH]c2cc1OCC1CCN(C)CC1 [Vandetanib] and tell me its recorded drug sensitivity score on DU-4475.
Result :: 0

====

- System: MDA-MB-453
- method.notes: normalised response (% of control), CellTiter-Glo; higher = more viable cells (100 = DMSO, 0 = benzethonium chloride kill control)
- test.parameters: incubation time: 72 h
measurement.kind: normalised response (%)
# unit: % | format: bare number

Some solved entries appear below for comparison.
{"compound": "NC(=O)c1ccc(I)c([N+](=O)[O-])c1 [Iniparib] (10000 nM)", "assayed.system": "MDA-MB-453", "unit.spec": "%", "normalised response": 73.2}
{"compound": "CC(C)C[C@@H](C(=O)N[C@H](C(=O)OC1CCCC1)c1ccccc1)[C@H](O)C(=O)NO [Tosedostat] (10000 nM)", "assayed.system": "MDA-MB-453", "unit.spec": "%", "normalised response": 47.6}
{"compound": "O=C(Nc1ccncc1)C(=O)c1cn(Cc2ccc(Cl)cc2)c2ccccc12 [Indibulin] (10000 nM)", "assayed.system": "MDA-MB-453", "unit.spec": "%", "normalised response": 66.9}

Query :: Quick one: give measured normalised response for O=P1(N(CCCl)CCCl)NCCCO1 (configuration not stated) [Cyclophosphamide] (40000 nM)
Result :: 101

Query :: For the compound Cc1ccc(NC(=O)c2ccc(CN3CCN(C)CC3)cc2)cc1Nc1nc(-c2cccnc2)cs1 [Masitinib] (10000 nM) , report normalised response.
Result :: 55.6

Query :: Let me know recorded normalised response for Oc1ccc2c(c1)CC[C@H](c1ccccc1)[C@@H]2c1ccc(OCCN2CCCC2)cc1 [Lasofoxifene] (1000 nM) , thanks.
Result :: 88.7

Query :: Tell us which normalised response value is on record for CCOC(=O)CCNc1cc(N2CCc3ccccc3CC2)nc(-c2ccccn2)n1 [GSK-J4] (100000 nM)
Result :: -0.16

Query :: Tell me its normalised response given Cc1[nH]c2ccccc2c1CCNCc1ccc(/C=C/C(=O)NO)cc1 [Panobinostat] (1000 nM) as the entry.
Result :: 2.01

====

- Test system: BT-549
- method.notes: normalised response (% of control), CellTiter-Glo; higher = more viable cells (100 = DMSO, 0 = benzethonium chloride kill control)
- test.parameters: incubation time: 72 h
measurement.kind: normalised response (%)
Just the number please, in %, no unit attached.

{"compound": "Cc1[nH]c2ccccc2c1CCNCc1ccc(/C=C/C(=O)NO)cc1 [Panobinostat] (100 nM)", "unit.spec": "%", "experimental.result": 46.2}

Query :: Name the recorded normalised response of the item COCC[n+]1c2c(n(Cc3cnccn3)c1C)C(=O)c1ccccc1C2=O [YM155] (1 nM) in your answer.
Result :: 96

Query :: Please supply the value of reported normalised response for the item COCC1(CO)C(=O)C2CCN1CC2 (configuration not stated) [Prima-1 Met] (1 nM)
Result :: 104

Query :: Indicate the recorded normalised response value for this compound: NC(=O)c1ccc(I)c([N+](=O)[O-])c1 [Iniparib] (1 nM)
Result :: 108
